- Tested on: Rattus norvegicus
- Protocol Text: Anti-inflammatory activity in Rattus norvegicus albino (rat) assessed as carageenaan-induced paw edema at 100 mg/kg, po administered 1 hr prior to carageenaan-challenge measured at 90 min relative to control (reference value: 38.7%)
- Format: functional
The entries below are paired with their reported Activity.

Input Smiles: Cc1n[nH]c2nnc3nc(CCC(=O)O)[nH]c3c12
Activity (%): 18.4
//
Input Smiles: Cc1n[nH]c2nnc3nc(CCCCC(=O)O)[nH]c3c12
Activity (%): 46.5
//
Input Smiles: Cc1n[nH]c2nnc3nc(/C=C\c4ccccc4)[nH]c3c12
Activity (%): 6.2
//
Input Smiles: Cc1n[nH]c2nnc3nc(-c4ccccc4)[nH]c3c12
Activity (%): 23.4
//
Input Smiles: Cc1n[nH]c2nnc3nc(-c4ccccc4C(=O)O)[nH]c3c12
Activity (%): 23.3

---

- Tested on: Rattus norvegicus
- Protocol Text: Anti-inflammatory activity in Rattus norvegicus albino (rat) assessed as carageenaan-induced paw edema at 100 mg/kg, po administered 1 hr prior to carageenaan-challenge measured at 30 min relative to control (reference value: 30.1%)
- Assay type: functional

Input Smiles: Cc1n[nH]c2nnc3nc(/C=C\c4ccccc4)[nH]c3c12
Activity / %: 3.9
//
Input Smiles: Cc1n[nH]c2nnc3nc(-c4ccccc4)[nH]c3c12
Activity / %: 14.1
//
Input Smiles: Cc1n[nH]c2nnc3nc(-c4ccccc4C(=O)O)[nH]c3c12
Activity / %: 15.1
//
Input Smiles: Cc1n[nH]c2nnc3nc(CCCCC(=O)O)[nH]c3c12
Activity / %: 33.9
//
Input Smiles: Cc1n[nH]c2nnc3nc(CCC(=O)O)[nH]c3c12
Activity / %: 6.5
